Form field: pKd (one value per entry).
Biological target: GDP-bound KRAS wild-type protein (Homo sapiens, UniProt P01116)
Sequence (P01116 whole entry): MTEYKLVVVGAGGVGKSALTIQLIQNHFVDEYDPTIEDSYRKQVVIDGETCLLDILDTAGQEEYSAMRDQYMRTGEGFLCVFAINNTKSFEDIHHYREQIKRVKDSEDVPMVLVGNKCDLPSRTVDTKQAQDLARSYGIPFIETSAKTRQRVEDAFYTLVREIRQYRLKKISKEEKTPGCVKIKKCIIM
Experiment: Binding to KRAS by surface plasmon resonance (SPR), Single Cycle Kinetics
Details: SPR Single Cycle Kinetics, GDP-bound KRAS wild-type protein, 1:1 binding model; read-out: KRAS KD
*1 amine or outer side, *2 acyl side, *3 side chain or, on linkers, in order; H or OH if unused. Where a SMILES comes first, the peptide text is derived from it. Bridges are numbered along the chain shown (N, C = ends). [ ]: non-standard residue; d: D form. The star is where a group is joined. hPhe(3,5-F2-4-CF3) = N[C@@H](CCc1cc(F)c(C(F)(F)F)c(F)c1)C(=O)O; hPhe(3-Cl-4-CF3) = N[C@@H](CCc1ccc(C(F)(F)F)c(Cl)c1)C(=O)O; NPrPhe(4-CF3) = CCCN[C@@H](Cc1ccc(C(F)(F)F)cc1)C(=O)O; X41 = Cc1ccc(C[C@@H](C(=O)[*:2])N(CC2CCCCC2)[*:1])cc1; X7 = CCN([C@H](C(=O)[*:2])C1CCCC1)[*:1]; NMeGly(cPent) = CN[C@H](C(=O)O)C1CCCC1; Nva(3-Et) = CCC(CC)[C@H](N)C(=O)O; Hyp = O=C(O)[C@@H]1C[C@@H](O)CN1; NMeD = CN[C@@H](CC(=O)O)C(=O)O; NMeL = CN[C@@H](CC(C)C)C(=O)O; Pip = O=C(O)[C@@H]1CCCCN1; Morpholide = C1CN(*)CCO1; Ac5c = NC1(C(=O)O)CCCC1; Aze = O=C(O)[C@@H]1CCN1; Sar = CNCC(=O)O
# pKd: negative log10 of molar concentration; output just the value

>>> value("CCC[C@H]1C(=O)N[C@@H]([C@@H](C)CC)C(=O)N(C)CC(=O)N(C)[C@H]2C/C=C\\CCN(C2=O)[C@@H](Cc2ccc(C)cc2)C(=O)N(C)CC(=O)N[C@@H](CCc2ccc(C(F)(F)F)c(OC)c2)C(=O)N2C[C@H](OCC)C[C@H]2C(=O)NC2(CC(C)(C)C2)C(=O)N(C)[C@@H](CC2CCC2)C(=O)N(C)[C@H](C(=O)N(C)C)CC(=O)N1C")
9.01
>>> value("CCCN1C(=O)CN(C)C(=O)[C@@H]2CCN2C(=O)[C@H]([C@@H](C)CC)NC(=O)[C@H](CC(C)C)N(C)C(=O)C[C@@H](C(=O)N2CCOCC2)N(C)C(=O)[C@H](C2CCCC2)N(C)C(=O)C2(CCCC2)NC(=O)[C@@H]2CCCCN2C(=O)[C@H](CCc2ccc(C(F)(F)F)c(Cl)c2)NC(=O)CN(C)C(=O)[C@@H]1Cc1ccc(C(F)(F)F)cc1 [PP0311] ([NMeL]I[Aze][Sar][NPrPhe(4-CF3)][Sar][hPhe(3-Cl-4-CF3)][Pip][Ac5c][NMeGly(cPent)][NMeD]-Morpholide; lactam N-11)")
8.48
>>> value("CCOC[C@H]1C(=O)N[C@@H]([C@@H](C)CC)C(=O)N(C)CC(=O)N(C)[C@H]2C/C=C\\CCN(C2=O)[C@@H](Cc2ccc(C(F)(F)F)cc2)C(=O)N(C)CC(=O)N[C@@H](CCc2ccc(Cl)c(Cl)c2)C(=O)N2C[C@H](OCC)C[C@H]2C(=O)NC2(CC(C)(C)C2)C(=O)N(C)[C@@H](CC(C)(C)C)C(=O)N(C)[C@H](C(=O)N(C)C)CC(=O)N1C")
9.77
>>> value("CC[C@H](C)[C@@H]1NC(=O)[C@H](COC)N(C)C(=O)C[C@@H](C(=O)N(C)C)N(C)C(=O)[C@H](C2CCCC2)N(C)C(=O)C2(CC(C)(C)C2)NC(=O)[C@@H]2C[C@@H](OC3CCC3)CN2C(=O)[C@H](CCc2cc(F)c(C(F)(F)F)c(F)c2)NC(=O)CN(C)C(=O)[C@H](CC2CCCCC2)N2CC/C=C\\C[C@@H](C2=O)N(C)C(=O)CN(C2CC2)C1=O")
8.85

## Task # pKd lookup, item CCO[C@@H]1C[C@H]2C(=O)NC3(CC(C)(C)C3)C(=O)N(C)[C@@H](C3CCCC3)C(=O)N(C)[C@H](C(=O)N(C)CC)CC(=O)N(C)[C@H]3CCCC/C=C/c4ccc(cc4)C[C@@H](C(=O)N(C)CC(=O)N[C@@H](CCc4ccc(Cl)c(Cl)c4)C(=O)N2C1)N1CC/C=C\C[C@@H](C1=O)N(C)C(=O)CN(C)C(=O)[C@H]([C@@H](C)CC)NC3=O
## Result 9.89

## Task Form field: reported pKd of CC[C@H](C)[C@@H]1NC(=O)[C@H](CC(C)C)N(C)C(=O)C[C@@H](C(=O)N2CCOCC2)N(C)C(=O)[C@H](C2CCCC2)N(C)C(=O)C2(CCCC2)NC(=O)[C@@H]2CCCN2C(=O)[C@H](CCc2ccc(C(F)(F)F)c(Cl)c2)NC(=O)CN(C)C(=O)[C@H](Cc2ccc(C)cc2)N(CC2CCCCC2)C(=O)CN(C)C(=O)CN(C)C1=O [PP0097] ([NMeL]I[Sar][Sar][X41][Sar][hPhe(3-Cl-4-CF3)]P[Ac5c][NMeGly(cPent)][NMeD]-Morpholide; lactam N-11)
## Result 8.03

## Task Item CCCN1C(=O)CN(C)C(=O)CNC(=O)[C@H]([C@@H](C)CC)NC(=O)[C@H](CC(C)C)N(C)C(=O)C[C@@H](C(=O)N2CCOCC2)N(C)C(=O)[C@H](C2CCCC2)N(C)C(=O)C2(CCCC2)NC(=O)[C@@H]2C[C@@H](OCC)CN2C(=O)[C@H](CCc2ccc(C(F)(F)F)c(Cl)c2)NC(=O)CN(C)C(=O)[C@@H]1Cc1ccc(C(F)(F)F)cc1 [PP0396] ([NMeL]IG[Sar][NPrPhe(4-CF3)][Sar][hPhe(3-Cl-4-CF3)][Hyp](Et)[Ac5c][NMeGly(cPent)][NMeD]-Morpholide; lactam N-11) has what recorded pKd?
## Result 9.89

## Task For CCCN1C(=O)CN(C)C(=O)CN(C)C(=O)[C@H](C(CC)CC)NC(=O)[C@H](CC(C)C)N(C)C(=O)C[C@@H](C(=O)N2CCOCC2)N(C)C(=O)[C@H](C2CCCC2)N(C)C(=O)C2(CCCC2)NC(=O)[C@@H]2CCCN2C(=O)[C@H](CCc2cc(F)c(C(F)(F)F)c(F)c2)NC(=O)CN(C)C(=O)[C@@H]1Cc1ccc(C(F)(F)F)cc1 [PP0768] ([NMeL][Nva(3-Et)][Sar][Sar][NPrPhe(4-CF3)][Sar][hPhe(3,5-F2-4-CF3)]P[Ac5c][NMeGly(cPent)][NMeD]-Morpholide; lactam N-11) , what is its reported pKd?
## Result 9.01

## Task Which measured pKd value corresponds to CC[C@H](C)[C@@H]1NC(=O)[C@H](CC(C)C)N(C)C(=O)C[C@@H](C(=O)N2CCOCC2)N(C)C(=O)[C@H](C2CCCC2)N(C)C(=O)C2(CCCC2)NC(=O)[C@@H]2CCCN2C(=O)[C@H](CCc2ccc(C(F)(F)F)c(Cl)c2)NC(=O)CN(C)C(=O)[C@H](C2CCCC2)N(CC)C(=O)CN(C)C(=O)CN(C)C1=O [PP0024] ([NMeL]I[Sar][Sar][X7][Sar][hPhe(3-Cl-4-CF3)]P[Ac5c][NMeGly(cPent)][NMeD]-Morpholide; lactam N-11) ?
## Result 8.23
